Please go through the items and note down their pEC50.
target: CFTR ΔF508 mutant (Homo sapiens, UniProt P13569, DEL508-508); construct: expressed in transfected cells; host or cells: CFBE41o- (adenoviral transduction); assay: YFP-halide influx assay for the CFTR-ΔF508 mutation (384 well, CFBE41o- cells, FDSS/μCell); type: cell-based; conditions: forskolin 10.67 μM, fluorescence after 36 seconds, read-out: EC50 measured by YFP-halide influx assay for the CFTR-ΔF508
Sequence (P13569 with tags, fused parts or gaps DEL508-508): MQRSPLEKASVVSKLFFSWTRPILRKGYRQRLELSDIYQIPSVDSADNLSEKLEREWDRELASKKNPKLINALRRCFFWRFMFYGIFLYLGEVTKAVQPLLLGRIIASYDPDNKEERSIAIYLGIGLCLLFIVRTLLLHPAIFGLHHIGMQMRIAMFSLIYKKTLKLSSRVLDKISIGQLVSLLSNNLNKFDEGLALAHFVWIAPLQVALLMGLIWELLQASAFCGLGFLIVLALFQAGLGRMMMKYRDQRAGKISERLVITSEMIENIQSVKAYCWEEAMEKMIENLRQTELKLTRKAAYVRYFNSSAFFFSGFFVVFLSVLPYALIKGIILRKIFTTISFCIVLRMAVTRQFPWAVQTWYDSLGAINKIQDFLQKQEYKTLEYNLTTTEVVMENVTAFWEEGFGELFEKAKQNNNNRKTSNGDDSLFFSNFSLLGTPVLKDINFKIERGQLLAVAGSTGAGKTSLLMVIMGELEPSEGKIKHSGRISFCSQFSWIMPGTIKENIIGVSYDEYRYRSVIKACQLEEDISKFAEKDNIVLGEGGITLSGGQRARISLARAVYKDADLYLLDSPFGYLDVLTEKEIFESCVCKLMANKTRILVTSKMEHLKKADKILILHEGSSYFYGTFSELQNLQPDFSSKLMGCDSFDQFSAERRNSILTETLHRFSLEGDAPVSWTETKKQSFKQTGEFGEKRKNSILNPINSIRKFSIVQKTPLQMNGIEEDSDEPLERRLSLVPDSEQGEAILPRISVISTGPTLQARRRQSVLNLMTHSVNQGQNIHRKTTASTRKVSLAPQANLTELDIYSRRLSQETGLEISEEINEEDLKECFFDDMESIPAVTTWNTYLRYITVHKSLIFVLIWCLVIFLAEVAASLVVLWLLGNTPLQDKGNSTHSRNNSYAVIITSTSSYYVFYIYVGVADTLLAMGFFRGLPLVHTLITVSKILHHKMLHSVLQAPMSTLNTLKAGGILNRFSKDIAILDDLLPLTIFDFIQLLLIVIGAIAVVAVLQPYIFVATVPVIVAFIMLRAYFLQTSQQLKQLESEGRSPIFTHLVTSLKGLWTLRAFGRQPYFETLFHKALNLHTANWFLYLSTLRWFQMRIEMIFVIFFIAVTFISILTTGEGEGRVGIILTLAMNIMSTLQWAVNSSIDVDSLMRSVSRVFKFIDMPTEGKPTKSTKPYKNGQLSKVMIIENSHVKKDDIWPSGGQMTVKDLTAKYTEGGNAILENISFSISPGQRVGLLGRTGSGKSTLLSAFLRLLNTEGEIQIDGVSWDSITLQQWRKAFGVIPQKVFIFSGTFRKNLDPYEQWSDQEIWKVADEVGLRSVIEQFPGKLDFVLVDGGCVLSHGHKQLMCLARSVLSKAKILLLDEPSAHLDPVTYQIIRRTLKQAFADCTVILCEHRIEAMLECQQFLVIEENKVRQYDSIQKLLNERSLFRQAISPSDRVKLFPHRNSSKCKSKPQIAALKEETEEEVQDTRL
In textbook form, pEC50 equals minus log to base ten of the concentration in mol/L.

Query: pEC50 lookup needed for CC1(C)Cc2c(sc(NC(=O)c3cncs3)c2C(N)=O)C(C)(C)O1 [Compound 134] , thanks.
Reply: 7.10

Query: Here is the next compound: COCCCc1c[nH]nc1C(=O)Nc1sc2c(c1C(N)=O)CC(C)(C)OC2(C)C [Compound 65]
Reply: 7.57

Query: And for CC1(C)Cc2c(sc(NC(=O)C3(C)CC(F)(F)C3)c2C(N)=O)C(C)(C)O1 [Compound 124] ?
Reply: 7.39

Query: And the next one, CC1(C)Cc2c(sc(NC(=O)c3cn[nH]c3)c2C(N)=O)C(C)(C)O1 [Compound 49] ?
Reply: 6.90

Query: Please do the same for CC(O)C1(C(=O)Nc2sc3c(c2C(N)=O)CC(C)(C)OC3(C)C)CC1 (stereo not drawn) [Compound 78] as well.
Reply: 8.19

Query: CC1(C)Cc2c(sc(NC(=O)[C@@H](O)CC3CC3)c2C(N)=O)C(C)(C)O1 [Compound 98] ?
Reply: 8.58

Query: Try the compound Cc1cc2nnc(C(=O)Nc3sc4c(c3C(N)=O)CC(C)(C)OC4(C)C)c(C)n2n1 [Compound 149]
Reply: 6.46

Query: Next entry: COCC(=O)Nc1sc2c(c1C(N)=O)CC(C)(C)OC2(C)C [Compound 160]
Reply: 6.19

Query: Next up: CC1(C)Cc2c(sc(NC(=O)[C@]3(CO)CC3(C)C)c2C(N)=O)C(C)(C)O1 [Compound 99]
Reply: 7.55
